Origin of values: patent US7928140B2

biological target: PI3K β (Homo sapiens, UniProt P42338); construct: Full length p110 subunits of PI3K α, β and δ, N-terminally labeled with polyHis tag; polyHis (N); test: In vitro PI3 kinase enzyme assay (beta), ATP loss, bioluminescence; conditions: read-out: PI3Kβ ATP loss IC50
Sequence (P42338 whole entry): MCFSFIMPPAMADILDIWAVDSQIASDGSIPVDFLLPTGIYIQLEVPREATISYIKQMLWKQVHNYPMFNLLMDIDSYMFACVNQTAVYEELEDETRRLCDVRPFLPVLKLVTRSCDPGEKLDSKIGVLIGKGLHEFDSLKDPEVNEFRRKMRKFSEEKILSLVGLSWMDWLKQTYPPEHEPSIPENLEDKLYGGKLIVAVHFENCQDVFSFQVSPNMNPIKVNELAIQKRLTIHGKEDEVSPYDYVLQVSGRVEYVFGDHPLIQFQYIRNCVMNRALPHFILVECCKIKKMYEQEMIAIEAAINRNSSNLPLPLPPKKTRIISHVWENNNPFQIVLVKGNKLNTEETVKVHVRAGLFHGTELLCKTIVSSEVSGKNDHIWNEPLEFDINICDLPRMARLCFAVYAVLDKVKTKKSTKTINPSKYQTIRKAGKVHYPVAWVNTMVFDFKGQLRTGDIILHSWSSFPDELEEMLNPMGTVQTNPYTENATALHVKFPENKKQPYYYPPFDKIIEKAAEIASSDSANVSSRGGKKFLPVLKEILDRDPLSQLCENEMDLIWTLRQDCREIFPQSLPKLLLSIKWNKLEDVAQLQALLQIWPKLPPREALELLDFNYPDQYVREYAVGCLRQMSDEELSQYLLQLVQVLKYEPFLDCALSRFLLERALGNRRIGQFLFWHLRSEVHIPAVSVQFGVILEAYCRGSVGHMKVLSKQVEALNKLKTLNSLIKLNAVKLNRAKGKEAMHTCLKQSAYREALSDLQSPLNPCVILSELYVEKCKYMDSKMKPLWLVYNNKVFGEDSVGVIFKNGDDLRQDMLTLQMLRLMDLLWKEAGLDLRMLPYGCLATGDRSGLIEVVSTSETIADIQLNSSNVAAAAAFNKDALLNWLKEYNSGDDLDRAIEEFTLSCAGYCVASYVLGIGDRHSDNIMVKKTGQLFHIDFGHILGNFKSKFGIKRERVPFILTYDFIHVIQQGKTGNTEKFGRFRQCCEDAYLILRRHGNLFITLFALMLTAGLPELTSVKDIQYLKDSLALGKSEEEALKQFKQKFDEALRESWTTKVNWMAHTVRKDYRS
Sequence (P27986 whole entry partner): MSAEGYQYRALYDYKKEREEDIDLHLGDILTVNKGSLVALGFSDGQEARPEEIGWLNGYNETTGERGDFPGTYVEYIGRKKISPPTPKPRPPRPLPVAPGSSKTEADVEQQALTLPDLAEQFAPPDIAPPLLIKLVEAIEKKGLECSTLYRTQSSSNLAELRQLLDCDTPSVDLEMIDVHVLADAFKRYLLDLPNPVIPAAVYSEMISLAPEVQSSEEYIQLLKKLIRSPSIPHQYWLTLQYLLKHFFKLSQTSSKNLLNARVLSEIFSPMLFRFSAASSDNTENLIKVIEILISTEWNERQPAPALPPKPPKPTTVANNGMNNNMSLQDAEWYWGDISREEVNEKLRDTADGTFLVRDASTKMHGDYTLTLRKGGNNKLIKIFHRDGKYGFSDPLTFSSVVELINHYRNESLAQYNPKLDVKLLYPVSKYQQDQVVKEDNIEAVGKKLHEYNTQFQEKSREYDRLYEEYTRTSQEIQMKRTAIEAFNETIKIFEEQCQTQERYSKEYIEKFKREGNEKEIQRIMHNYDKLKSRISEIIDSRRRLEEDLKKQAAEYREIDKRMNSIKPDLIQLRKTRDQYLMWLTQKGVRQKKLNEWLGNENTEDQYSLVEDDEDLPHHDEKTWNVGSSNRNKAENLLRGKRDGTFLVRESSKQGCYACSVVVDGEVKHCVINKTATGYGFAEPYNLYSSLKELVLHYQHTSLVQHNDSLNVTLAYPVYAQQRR
Endpoint Label: pIC50
For clarity, pIC50 is expressed as the negative log10 of concentration in mol/L.

The examples below pair each entry with its known result.
molecule="CC(=O)Nc1nc2ccc(-c3cncc(Sc4ccccc4F)n3)cc2s1 [Example 130]" target="PI3K β (Homo sapiens, UniProt P42338)" measured=7.19
molecule="CC(=O)Nc1nc2ccc(-c3ccnc(NN4CCCCC4)n3)cc2s1 [Example 265]" target="PI3K β (Homo sapiens, UniProt P42338)" measured=4.39
molecule="COc1ccc(S(=O)(=O)Nc2cc(-c3ccc4nc(NC(C)C)sc4c3)cnc2Cl)cc1 [Example 305]" target="PI3K β (Homo sapiens, UniProt P42338)" measured=6.65
molecule="COc1ccccc1Sc1nccc(-c2ccc3nc(NC(C)=O)sc3c2)n1 [Example 28]" target="PI3K β (Homo sapiens, UniProt P42338)" measured=6.31
molecule="CNC(=O)Nc1nc2ccc(-c3ccnc(OCc4ccccc4)n3)cc2s1 [Example 56]" target="PI3K β (Homo sapiens, UniProt P42338)" measured=6.40
molecule="CC(=O)Nc1nc2ccc(-c3ccnc(N(C)S(=O)(=O)c4ccsc4)n3)cc2s1 [Example 209]" target="PI3K β (Homo sapiens, UniProt P42338)" measured=6.07

Q) Sample CC(=O)Nc1nc2ccc(-c3ccnc(OCc4cccc(C)c4)n3)cc2s1 [Example 107] — what was its pIC50?
A) 6.08

Q) Ok, now CC(=O)Nc1nc2ccc(-c3ccnc(N(C)S(=O)(=O)c4ccc(F)cc4)n3)cc2s1 [Example 203]
A) 6.03

Q) Repeat for the following molecule: CC(=O)Nc1nc2ccc(-c3cnc(C)c(NS(=O)(=O)c4cccc(C(F)(F)F)c4)c3)cc2s1 [Example 113]
A) 7.89

Q) Would you mind doing CCC(=O)Nc1nc2ccc(-c3ccnc(OCc4ccccc4)n3)cc2s1 [Example 57] as well?
A) 5.05

Q) What about this molecule? COc1ccc(S(=O)(=O)c2cccc(-c3ccc4nc(NC(C)=O)sc4c3)n2)cc1 [Example 68]
A) 6.17

Q) Next entry: CC(=O)Nc1nc2ccc(-c3ccnc(N(C)S(=O)(=O)c4ccc(C(F)(F)F)cc4)n3)cc2s1 [Example 213]
A) 6.92

Q) Would you mind doing CNc1ncc(-c2ccc3nc(NC(C)=O)sc3c2)cc1NC(C)C [Example 147] as well?
A) 5.25

Q) // next record COc1cccc(S(=O)(=O)c2cccc(-c3ccc4nc(NC(C)=O)sc4c3)n2)c1 [Example 69]
A) 6.55

Q) Repeat for the following molecule: CC(=O)Nc1nc2ccc(-c3ccnc(CCCc4ccccc4)n3)cc2s1 [Example 14]
A) 4.97

* * *

target: PI3K α (Homo sapiens, UniProt P42336); construct: Full length p110 subunits of PI3K α, β and δ, N-terminally labeled with polyHis tag; polyHis (N); assay: In vitro PI3 kinase enzyme assay (alpha), ATP loss, bioluminescence; conditions: read-out: PI3Kα ATP loss IC50
Sequence (P42336 whole entry, species assumed): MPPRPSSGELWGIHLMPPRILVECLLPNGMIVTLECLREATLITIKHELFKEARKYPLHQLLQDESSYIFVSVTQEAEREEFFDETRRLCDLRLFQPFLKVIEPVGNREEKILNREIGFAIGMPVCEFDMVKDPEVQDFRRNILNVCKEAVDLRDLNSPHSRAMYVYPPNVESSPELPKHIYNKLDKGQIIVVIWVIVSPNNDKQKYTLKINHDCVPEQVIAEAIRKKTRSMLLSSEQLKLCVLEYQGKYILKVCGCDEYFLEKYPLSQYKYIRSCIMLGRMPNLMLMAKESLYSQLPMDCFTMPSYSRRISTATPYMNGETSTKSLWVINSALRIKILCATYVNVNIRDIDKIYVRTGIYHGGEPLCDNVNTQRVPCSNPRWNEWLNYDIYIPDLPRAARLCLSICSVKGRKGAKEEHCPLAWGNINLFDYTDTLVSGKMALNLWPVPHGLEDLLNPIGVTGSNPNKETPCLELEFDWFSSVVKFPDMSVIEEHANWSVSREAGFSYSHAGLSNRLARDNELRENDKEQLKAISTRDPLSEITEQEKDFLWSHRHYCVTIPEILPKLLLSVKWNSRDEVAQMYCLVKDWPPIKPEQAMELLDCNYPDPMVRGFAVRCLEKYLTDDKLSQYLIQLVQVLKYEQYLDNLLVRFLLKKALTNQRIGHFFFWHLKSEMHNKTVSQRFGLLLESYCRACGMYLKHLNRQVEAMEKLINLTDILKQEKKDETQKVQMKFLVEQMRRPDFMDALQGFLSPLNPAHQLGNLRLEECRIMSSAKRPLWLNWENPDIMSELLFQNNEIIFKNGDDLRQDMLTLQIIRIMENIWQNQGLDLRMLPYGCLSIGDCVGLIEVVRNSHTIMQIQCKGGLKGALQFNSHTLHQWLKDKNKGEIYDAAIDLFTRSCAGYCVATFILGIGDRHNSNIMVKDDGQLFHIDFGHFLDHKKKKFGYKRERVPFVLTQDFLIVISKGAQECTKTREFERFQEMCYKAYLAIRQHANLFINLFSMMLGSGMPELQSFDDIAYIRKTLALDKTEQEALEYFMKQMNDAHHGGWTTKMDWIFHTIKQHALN
Sequence (P27986 whole entry partner, species assumed): as the sequence (P27986 whole entry partner) above
Endpoint Label: log10 IC50 (log10 of the value in nM)
log10 IC50, nM

molecule="CC(=O)Nc1nc2ccc(-c3csc(S(=O)(=O)c4ccccc4F)n3)cc2s1 [Example 63]" measured=2.75

Q) Give its log10 IC50 value. Item: Nc1nc2ccc(-c3cnc(Cl)c(NS(=O)(=O)c4ccc(F)cc4F)c3)cc2s1 [Example 311]
A) 1.23

* * *

target: PI3K β (Homo sapiens, UniProt P42338); construct: Full length p110 subunits of PI3K α, β and δ, N-terminally labeled with polyHis tag; polyHis (N); experiment: In vitro PI3 kinase enzyme assay (beta), ATP loss, bioluminescence; details: read-out: PI3Kβ ATP loss IC50
Endpoint Label: IC50 (nM)
// return numeric value only (unit: nM, not printed)

Answered examples (3):
compound=CC(=O)Nc1nc2ccc(-c3ccnc(OCc4ccc5[nH]ccc5c4)n3)cc2s1 readout_units=nM measured=8860
compound=CC(=O)Nc1nc2ccc(-c3ccnc(Sc4ccccc4C(C)C)n3)cc2s1 readout_units=nM measured=1210
compound=CC(=O)Nc1nc2ccc(-c3ccnc(OCc4ccccc4)n3)cc2s1 readout_units=nM measured=240

Q) I have this molecule here, COc1ccc(S(=O)(=O)Nc2cc(-c3ccc4nc(NC(C)=O)sc4c3)ccn2)cc1 , and I need its recorded IC50.
A) 117

Q) Same question, CN(C)CC(=O)Nc1nc2ccc(-c3ccnc(OCc4ccccc4)n3)cc2s1 this time
A) 9800

Q) Now consider CC(=O)Nc1nc2ccc(-c3cncc(N(C)S(=O)(=O)c4ccc(Cl)c(Cl)c4)c3)cc2s1 .
A) 2100

Q) Would you kindly repeat that for CCCS(=O)(=O)Nc1cc(-c2ccc3nc(NC(C)=O)sc3c2)cnc1Cl ?
A) 34.9

Q) And then COc1ccc(Sc2nccc(-c3ccc4nc(NC(C)=O)sc4c3)n2)cc1 , what is it?
A) 106

Q) Let us now turn to CC(=O)Nc1nc2ccc(-c3ccnc(N(C)S(=O)(=O)c4ccccc4)n3)cc2s1
A) 237

Q) Entry to check: Nc1nc2ccc(-c3cnc(Cl)c(NS(=O)(=O)c4ccc(Cl)cc4Cl)c3)cc2s1
A) 17.4

Q) CC(C)(O)C(=O)Nc1nc2ccc(-c3ccnc(OCc4ccccc4)n3)cc2s1 ?
A) 7750

Q) For COc1cc(Cl)ncc1-c1ccc2nc(NC(C)=O)sc2c1 then?
A) 12400

Q) // same read-out, input: CC(=O)Nc1nc2ccc(-c3cnc(Cl)c(NS(=O)(=O)c4cccc(C(C)(C)C)c4)c3)cc2s1
A) 6.9

Q) Would you kindly repeat that for CC(=O)Nc1nc2ccc(-c3cccc4sc(=O)[nH]c34)cc2s1 ?
A) 10000

Q) Also CC(=O)Nc1nc2ccc(-c3ccnc(Sc4ccc(Br)cc4)n3)cc2s1 , if possible.
A) 1050

Q) Then this molecule: CC(=O)Nc1nc2ccc(-c3cncc(OCCN4CCCCCC4)c3)cc2s1
A) 9980

* * *

target: PI3K β (Homo sapiens, UniProt P42338); construct: Full length p110 subunits of PI3K α, β and δ, N-terminally labeled with polyHis tag; polyHis (N); made in house; host or cells: Sf9 insect cells (baculovirus); experiment: In vitro PI3 kinase enzyme assay (beta), ATP loss, bioluminescence; type: biochemical; conditions: read-out: PI3Kβ ATP loss IC50;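 further: purified p110β/p85 heterodimer with PtdIns(4,5)P2 as acceptor, incubated at room temperature, leftover ATP read by luminescence, inhibition scaled to compound-free wells with and without enzyme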
Endpoint Label: pIC50
// pIC50 is dimensionless: -log10 of concentration (M)

Q) What does the data say about its pIC50? Entry: CC(=O)Nc1nc2ccc(-c3ccnc(NS(=O)(=O)c4ccccc4F)n3)cc2s1
A) 6.99

Q) Continue with CC(=O)Nc1nc2ccc(-c3ccnc(OCc4cccc(F)c4)n3)cc2s1
A) 5.40

Q) Now give it for CC(=O)Nc1nc2ccc(-c3cnc(Cl)c(NS(=O)(=O)c4ccc(C(C)(C)C)cc4)c3)cc2s1 too.
A) 8.38

Q) And what about the compound COc1ccc(S(=O)(=O)Nc2cc(-c3ccc4nc(NCC5CCCCC5)sc4c3)cnc2Cl)cc1 ?
A) 6.39

* * *

target: PI3K α (Homo sapiens, UniProt P42336); construct: Full length p110 subunits of PI3K α, β and δ, N-terminally labeled with polyHis tag; polyHis (N); assay: In vitro PI3 kinase enzyme assay (alpha), ATP loss, bioluminescence; settings: read-out: PI3Kα ATP loss IC50
pIC50: −log10 of the molar value.
Lab note: anything with pIC50 at or over 6 counts as t; the rest go in f.

Q) Form field: pIC50 at least 6? Entry: CC(=O)Nc1nc2ccc(-c3cncc(NS(=O)(=O)c4ccc(C(C)O)cc4)c3)cc2s1 (centres unmarked)
A) t

Q) Ok, now CC(=O)Nc1nc2ccc(-c3cnc(C)c(NS(=O)(=O)c4ccccc4)c3)cc2s1
A) t

Q) Also, Nc1nc2ccc(-c3cnc(Cl)c(NS(=O)(=O)c4cccc(OC(F)F)c4)c3)cc2s1 please.
A) t

Q) Likewise for COCC(=O)Nc1nc2ccc(-c3cnc(Cl)c(NC(C)C)c3)cc2s1 ?
A) t

Q) Let us now turn to CC(=O)Nc1nc2ccc(-c3cncc(Cl)n3)cc2s1
A) t

Q) Field entry: CC(=O)Nc1nc2ccc(-c3ccnc(OCCN(C)C)n3)cc2s1
A) f

Q) Same read-out for CC(=O)Nc1nc2ccc(-c3ccnc(O[C@H](C)c4ccccc4)n3)cc2s1 ?
A) t

Q) And for CC(=O)Nc1nc2ccc(-c3nnc(NS(=O)(=O)c4ccc(F)cc4)o3)cc2s1 ?
A) t

Q) Entry to check: CC(=O)Nc1nc2ccc(-c3ccnc(Sc4cc(C)cc(C)c4)n3)cc2s1
A) t

Q) Another compound to look at: CC(=O)Nc1nc2ccc(-c3cnc(Cl)c(N(C(=O)OC(C)(C)C)C(=O)OC(C)(C)C)c3)cc2s1
A) f

Q) Moving on to CC(=O)Nc1nc2ccc(-c3cncc(OCCN4CCCCCC4)c3)cc2s1
A) f

Q) Can you handle CC(=O)Nc1nc2ccc(-c3ccnc(N(C)S(=O)(=O)c4cccc5ccccc45)n3)cc2s1 next?
A) t

Q) Same read-out for CC(=O)Nc1nc2ccc(-c3cncc(NS(=O)(=O)c4ccc(C)cc4)c3)cc2s1 ?
A) t

Q) Follow-up entry: CC(=O)Nc1nc2ccc(-c3ccnc(OCCCn4ccnn4)n3)cc2s1
A) t

Q) Param item: CC(C)(O)C(=O)Nc1nc2ccc(-c3ccnc(OCc4ccccc4)n3)cc2s1
A) f
